Biological target: T1, huCLL1-K244-Avi-Tev-His (human, UniProt Q5QGZ9 65-265);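 note: Bio-layer interferometry with scFvs captured on biosensors via anti-V5 antibody, exposed 2 min to CLL-1 K244 or Q244 protein, 5 min dissociation, scored as binding, no binding or ambiguous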
T1 construct: extracellular domain
T1 sequence (looked up): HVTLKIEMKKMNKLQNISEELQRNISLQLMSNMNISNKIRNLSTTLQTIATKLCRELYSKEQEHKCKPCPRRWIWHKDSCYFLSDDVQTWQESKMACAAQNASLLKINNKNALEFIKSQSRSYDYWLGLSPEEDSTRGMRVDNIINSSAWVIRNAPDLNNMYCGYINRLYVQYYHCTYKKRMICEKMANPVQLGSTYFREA
Assay: BLI
Property: binding result

Polypeptide No. 65 (scFv, V domains shown, scFv) VH: QVQLVQSGAEVKKPGASVKVSCKASGYTFTGYYMHWVRQAPGQGLEWMGWINPNSGGTNYAQKFQGRVTMTRDTSTSTVYMELSSLRSEDTAVYYCAREIGGYDNYYYYGMDVWGQGTTVTVSS VL: DIQMTQSPSSLSASVGDRVTITCRASQSIGTYLNWYQQKPGKAPKLLIYAASSLQSGVPSRFSGSGSGTDFTLTISSLQPEDFATYYCQQSYTDPWTFGQGTKVEIKR    binds
Polypeptide No. 72 (scFv, V domains shown, scFv) VH: QVQLVQSGAEVKKPGASVKVSCKASGGTFSNYAISWVRQAPGQGLEWMGWISAYNGNSDYAQNLQGRVTMTRDTSTSTVYMELSSLRSEDTAVYYCAIGDYFDYWGQGTLVTVSS VL: DIQMTQSPSSLSASVGDRVTITCQASEDINKYLNWYQQKPGKAPKLLIYDASNLETGVPSRFSGSGSGTDFTLTISSLQPEDFATYYCQQANSFPLTFGQGTKVEIKR    no binding
Polypeptide No. 87 (scFv, V domains shown, scFv) VH: QVQLVQSGAEVKKPGASVKVSCKASGYSFTNYYIHWVRQAPGQGLEWMGWMNPYTGQTGYAQKFQGRVTMTRDTSTSTVYMELSSLRSEDTAVYYCTTDEETMDFHLWGRGTLVTVSS VL: DIQMTQSPSSLSASVGDRVTITCZASQSISSYLNWYQQKPGKAPKLLIYDASNLETGVPSRFSGSGSGTDFTLTISSLQPEDFATYYCQQANTFPITFGQGTRLEIKR    no binding
Polypeptide No. 64 (scFv, V domains shown, scFv) VH: QVQLVQSGAEVKKPGASVKVSCKASGYTFTDYYMHWVRQAPGQGLEWMGLIDPSGGSTNSLQKFQGRVTMTRDTSTSTVYMELSSLRSEDTAVYYCARDVGFGELSFDIWGQGTTVTVSS VL: DIVMTQSPLSLPVTPGEPASISCRSSQSLLHSNGYNYLDWYLQKPGQSPQLLIYAASTLQSGVPDRFSGSGSGTDFTLKISRVEAEDVGVYYCMQGTHWPPTFGPGTKVDIKR    binds
Polypeptide No. 55 (scFv, V domains shown, scFv) VH: QVQLVQSGAEVKKPGASVKVSCKASGYTFTGYHMHWVRQAPGQGLEWMGWINPNTGGTNYAQKFQGRVTMTRDTSTSTVYMELSSLRSEDTAVYYCARPNTAMVPPYYYYYGMDVWGQGTLVTVSS VL: DIQMTQSPSSLSASVGDRVTITCQASQDISNYLNWYQQKPGKAPKLLIYAASSLQSGVPSRFSGSGSGTDFTLTISSLQPEDFATYYCQQYNSYPLTFGQGTKLEIKR    binds
